Provide the recorded TGI for the entries that follow.
System: HOP-62 NSCLC
Experiment summary: NCI tumour cell line growth inhibition, 48 h
One number for each entry, in µM.

// known answers, use as guide
>  <Molecule>
Cc1cc(I)cc(CN(C)CCCN2CCC(C)CC2)c1O

>  <Data value>
27.2

$$$$
>  <Molecule>
CCOC(=O)Cc1[nH]c(C(=O)c2ccccc2)cc1C(=O)c1ccccc1

>  <Data value>
51.7

$$$$

Below are some molecules; for each one, tell me its TGI.
1. CSc1ccc(N2C(=O)C3c4[nH]c5ccccc5c4C4CCC(C(C)(C)C)CC4C3C2=O)cc1 (stereo unspecified)
2. c1ccc2c(N=NSc3ncnc4nc[nH]c34)c3ccccc3nc2c1
3. CC1(C)CCC2=C(O1)c1ccccc1C(=Nc1ccc([N+](=O)[O-])cc1)C2=O
4. CC1=CC2(C)/C=C(C)/C=C\CC(O)/C=C3/C=CC(=C4C(=O)OC2(CC1C)C4=O)OC3 (stereo unspecified)
5. C[C@@H]1CC[C@@H]2[C@@H]1[C@H](OC(=O)/C=C/C1CCCCC1)[C@]1(C3CCCCC3)C[C@@H](OC(=O)CO)[C@@]2(C)O1
6. NC1(c2cc3ccccc3s2)CCCCCC1
7. O=C(CSc1nc2ccc(I)cc2c(=O)n1Cc1ccccc1)Nc1ccccc1

Response:
1: 28.6; 2: 5.71; 3: 34.1; 4: 26.2; 5: 27.5; 6: 27.7; 7: 26.7

For the 3 molecules below, give their TGI values.
1. CCOP(=O)(OCC)C(Nc1ccc(Cl)cc1)c1ccc(F)cc1 (stereo unspecified)
2. CC1(C)C2CC3C(C)(C2)C31c1cc(Cl)ccc1N (stereo unspecified)
3. C=CC(=O)N1C/C(=C\c2ccc(OC)cc2)C(=O)/C(=C/c2ccc(OC)cc2)C1

Response:
48.2
29.4
11.2
